Entries and their measured pIC50 follow.
EXPERIMENTAL_TARGET: ERK2 enzyme (Homo sapiens (Human), UniProt P28482)
Sequence (P28482 whole entry): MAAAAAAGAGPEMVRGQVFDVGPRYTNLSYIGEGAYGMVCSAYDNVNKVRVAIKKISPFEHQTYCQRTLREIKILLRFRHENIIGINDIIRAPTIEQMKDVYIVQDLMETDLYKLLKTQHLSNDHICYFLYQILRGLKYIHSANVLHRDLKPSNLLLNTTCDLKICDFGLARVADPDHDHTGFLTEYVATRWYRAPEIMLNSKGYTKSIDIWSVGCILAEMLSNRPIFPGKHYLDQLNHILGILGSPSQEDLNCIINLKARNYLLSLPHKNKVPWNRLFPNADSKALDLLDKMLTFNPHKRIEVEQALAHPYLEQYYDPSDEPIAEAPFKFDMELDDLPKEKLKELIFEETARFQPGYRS
ASSAY_TEXT: Inhibition assay of ERK (Z'-LYTE kinase assay, Ser/Thr 3 peptide substrate)
Assay type: biochemical
APPLIED_CONDITIONS: In vitro ERK2 enzyme, 100 μM ATP
pIC50: −log10 of the molar value.

Use the examples below as a reference point.
>  <SUBSTANCE_SMILES>
Cc1cc(-c2n[nH]c3cc4c(cc23)CN(CCc2ccc(F)cc2)CC(=O)N4)ccn1

>  <EXPERIMENTAL_TARGET>
ERK2 enzyme (Homo sapiens (Human), UniProt P28482)

>  <pIC50>
6.00 to 6.60

$$$$
>  <SUBSTANCE_SMILES>
Cc1cc(-c2n[nH]c3cc4c(cc23)CN([C@@H]2CCCN(Cc3ccc(F)cc3F)C2)C(=O)N4)ccn1

>  <EXPERIMENTAL_TARGET>
ERK2 enzyme (Homo sapiens (Human), UniProt P28482)

>  <pIC50>
> 7.30

$$$$

Indicate the recorded pIC50 value for this molecule: `COc1cccc(F)c1CN1CCC(N2Cc3cc4c(-c5ccnnc5)n[nH]c4cc3NC2=O)CC1` 6.60 to 7.30

Indicate the recorded pIC50 value for this molecule: `Cc1cc(-c2n[nH]c3cc4c(cc23)CN([C@@H]2CCCN(Cc3ccc(F)c(Cl)c3)C2)C(=O)N4)ccn1` > 7.30

Indicate the recorded pIC50 value for this molecule: `C[C@H](c1cccc(Cl)c1)N1Cc2cc3c(-c4ccnnc4)n[nH]c3cc2NC1=O` > 7.30

Indicate the recorded pIC50 value for this molecule: `O=C1Nc2cc3[nH]nc(-c4ccnnc4)c3cc2CN1Cc1cccc(C(F)(F)F)c1` > 7.30

Indicate the recorded pIC50 value for this molecule: `Nc1ncc(-c2n[nH]c3cc4c(cc23)CN(Cc2cccc(Cl)c2)C(=O)N4)cn1` > 7.30

Indicate the recorded pIC50 value for this molecule: `O=C1Nc2cc3[nH]nc(-c4ccncc4)c3cc2CN1Cc1cccc(Cl)c1` > 7.30

* * *

EXPERIMENTAL_TARGET: ERK2 enzyme (Homo sapiens (Human), UniProt P28482)
ASSAY_TEXT: Inhibition assay of ERK (Z'-LYTE kinase assay, Ser/Thr 3 peptide substrate)
Format: biochemical
APPLIED_CONDITIONS: In vitro, ERK2 enzyme 0.47 ng/μL, 100 μM ATP
QUANTITY_MEASURED: IC50

Use the examples below as a reference point.
>  <COMPOUND>
CC(c1ccccc1)c1cc2cc3c(-c4ccnnc4)n[nH]c3cc2[nH]c1=O (stereo not drawn)

>  <EXPERIMENTAL_TARGET>
ERK2 enzyme (Homo sapiens (Human), UniProt P28482)

>  <IC50>
< 50 nM

$$$$
>  <COMPOUND>
Cc1cc(-c2n[nH]c3cc4c(cc23)CN(C2CN(Cc3ccccc3)CC(F)(F)C2)C(=O)N4)ccn1 (stereo not drawn)

>  <EXPERIMENTAL_TARGET>
ERK2 enzyme (Homo sapiens (Human), UniProt P28482)

>  <IC50>
< 50 nM

$$$$
>  <COMPOUND>
CN(C)CCN1CCN(c2n[nH]c3cc4c(cc23)CN(Cc2ccc(F)c(Cl)c2)C(=O)N4)CC1

>  <EXPERIMENTAL_TARGET>
ERK2 enzyme (Homo sapiens (Human), UniProt P28482)

>  <IC50>
250 to 1000 nM

$$$$
>  <COMPOUND>
Cc1cc(-c2n[nH]c3cc4c(cc23)CN([C@H]2CCN(Cc3ccccc3)C2)C(=O)N4)ccn1

>  <EXPERIMENTAL_TARGET>
ERK2 enzyme (Homo sapiens (Human), UniProt P28482)

>  <IC50>
< 50 nM

$$$$
>  <COMPOUND>
Cc1cc(-c2n[nH]c3cc4c(cc23)CN(C(C)c2nccs2)C(=O)N4)ccn1 (stereo not drawn)

>  <EXPERIMENTAL_TARGET>
ERK2 enzyme (Homo sapiens (Human), UniProt P28482)

>  <IC50>
< 50 nM

$$$$
>  <COMPOUND>
Cc1cc(-c2n[nH]c3cc4c(cc23)CN([C@H](C)c2ccccc2)C(=O)N4)cc(C)n1

>  <EXPERIMENTAL_TARGET>
ERK2 enzyme (Homo sapiens (Human), UniProt P28482)

>  <IC50>
< 50 nM

$$$$
>  <COMPOUND>
COc1ccc(-c2n[nH]c3cc4c(cc23)CN([C@@H]2CCCN(Cc3ccc(F)cc3F)C2)C(=O)N4)cn1

>  <EXPERIMENTAL_TARGET>
ERK2 enzyme (Homo sapiens (Human), UniProt P28482)

>  <IC50>
< 50 nM

$$$$
>  <COMPOUND>
Cc1cc(-c2n[nH]c3cc4c(cc23)CN(CC2CCOCC2)C(=O)N4)cc(C)n1

>  <EXPERIMENTAL_TARGET>
ERK2 enzyme (Homo sapiens (Human), UniProt P28482)

>  <IC50>
< 50 nM

$$$$
>  <COMPOUND>
O=C1Nc2cc3[nH]nc(NC4CCOCC4)c3cc2CN1[C@@H]1CN(CC(F)(F)F)C[C@H]1c1ccccc1

>  <EXPERIMENTAL_TARGET>
ERK2 enzyme (Homo sapiens (Human), UniProt P28482)

>  <IC50>
50 to 250 nM

$$$$
>  <COMPOUND>
CCN1C[C@@H](N2Cc3cc4c(-c5ccnc(C)c5)n[nH]c4cc3NC2=O)[C@H](c2ccccc2)C1 (racemic)

>  <EXPERIMENTAL_TARGET>
ERK2 enzyme (Homo sapiens (Human), UniProt P28482)

>  <IC50>
< 50 nM

$$$$

Indicate the recorded IC50 value for this compound: CC(c1ccccc1)c1cc2cc3c(N4CCOCC4)n[nH]c3cc2[nH]c1=O (stereo not drawn) < 50 nM

Indicate the recorded IC50 value for this compound: `Cc1cc(-c2n[nH]c3cc4c(cc23)CN(Cc2cccc(C(F)(F)F)c2)C(=O)N4)ccn1` < 50 nM

Indicate the recorded IC50 value for this compound: Cc1cc(-c2n[nH]c3cc4c(cc23)CN(C2CN(Cc3cc(F)cc(F)c3)CC(F)(F)C2)C(=O)N4)ccn1 (stereo not drawn) 250 to 1000 nM

Indicate the recorded IC50 value for this compound: `Cc1cc(-c2n[nH]c3cc4c(cc23)CN([C@@H]2CCN(C)C2)C(=O)N4)ccn1` < 50 nM

Indicate the recorded IC50 value for this compound: Cc1cc(-c2n[nH]c3cc4c(cc23)CN([C@@H]2CN(C)C[C@H]2c2ccc(F)cc2)C(=O)N4)cc(C)n1 (racemic) 50 to 250 nM

Indicate the recorded IC50 value for this compound: `Cn1nccc1-c1n[nH]c2cc3c(cc12)CN([C@@H]1CCCN(Cc2ccccc2)C1)C(=O)N3` < 50 nM

Indicate the recorded IC50 value for this compound: `Cn1cc(-c2n[nH]c3cc4c(cc23)CN([C@@H]2CCCN(Cc3ccccc3)C2)C(=O)N4)cn1` < 50 nM

Indicate the recorded IC50 value for this compound: `Cc1cc(-c2n[nH]c3cc4c(cc23)CN([C@@H]2CN(Cc3ccccc3)CC(F)(F)C2)C(=O)N4)ccn1` 250 to 1000 nM

Indicate the recorded IC50 value for this compound: `Cn1cc(-c2n[nH]c3cc4c(cc23)CN([C@@H]2CCN(CC(F)(F)F)C2)C(=O)N4)cn1` < 50 nM

Indicate the recorded IC50 value for this compound: `CCN1CC[C@@H](N2Cc3cc4c(-c5ccnc(C)c5)n[nH]c4cc3NC2=O)C1` < 50 nM
